Test system: 266 human PDZ domains (PDZome)
Assay: Holdup assay (chromatographic retention, PDZome-binding profile, BI)
Design: key: binding intensity: 0.00 = no binding, 1.00 = maximal binding
Details: PDZ domain PRX-1
*1 amine or outer side, *2 acyl side, *3 side chain or, on linkers, in order; H or OH if unused. Where a SMILES comes first, the peptide text is derived from it. The star is where a group is joined. X1 = O=C(CCCC[C@@H]1SC[C@@H]2NC(=O)N[C@@H]21)NCCCOCCOCCOCCCN*; Suc = O=C(CCC(=O)[*:2])[*:1]
Reported BI by item:
Respond numerically, and do not add a unit to the figure.

See these solved cases before continuing.
[
  {
    "COMPOUND": "CC[C@H](C)[C@H](NC(=O)[C@H](CCC(N)=O)NC(=O)[C@@H](NC(=O)[C@H](Cc1c[nH]cn1)NC(=O)[C@H](CCC(N)=O)NC(=O)[C@H](CC(=O)O)NC(=O)[C@H](CCC(=O)O)NC(=O)[C@H](CC(=O)O)NC(=O)CCC(=O)NCCCOCCOCCOCCCNC(=O)CCCC[C@@H]1SC[C@@H]2NC(=O)N[C@@H]21)[C@@H](C)O)C(=O)N[C@H](C(=O)N[C@@H](CCCNC(=N)N)C(=O)N[C@H](C(=O)O)C(C)C)[C@@H](C)O [PTEN_KR] ({X1-Suc}-DEDQHTQITRV-OH)",
    "BI": 0.025
  },
  {
    "COMPOUND": "CC[C@H](C)[C@H](NC(=O)[C@H](CCC(N)=O)NC(=O)[C@@H](NC(=O)[C@H](Cc1c[nH]cn1)NC(=O)[C@H](CCC(N)=O)NC(=O)[C@H](CC(=O)O)NC(=O)[C@H](CCC(=O)O)NC(=O)[C@H](CC(=O)O)NC(=O)CCC(=O)NCCCOCCOCCOCCCNC(=O)CCCC[C@@H]1SC[C@@H]2NC(=O)N[C@@H]21)[C@@H](C)O)C(=O)N[C@H](C(=O)N[C@@H](CCCCN)C(=O)N[C@H](C(=O)O)C(C)C)[C@@H](C)O",
    "BI": -0.1
  },
  {
    "COMPOUND": "CC[C@H](C)[C@H](NC(=O)[C@H](CCC(N)=O)NC(=O)[C@@H](NC(=O)[C@H](Cc1c[nH]cn1)NC(=O)[C@H](CCC(N)=O)NC(=O)[C@H](CC(=O)O)NC(=O)[C@H](CCC(=O)O)NC(=O)[C@H](CC(=O)O)NC(=O)[C@H](Cc1ccccc1)NC(=O)[C@@H]1CCCN1C(=O)CCC(=O)NCCCOCCOCCOCCCNC(=O)CCCC[C@@H]1SC[C@@H]2NC(=O)N[C@@H]21)[C@@H](C)O)C(=O)N[C@H](C(=O)N[C@@H](CCCCN)C(=O)N[C@H](C(=O)O)C(C)C)[C@@H](C)O [PTEN_13] ({X1-Suc}-PFDEDQHTQITKV-OH)",
    "BI": -0.006
  }
]

Shifting focus to the compound that follows.
What the record says about CC[C@H](C)[C@H](NC(=O)[C@H](CCC(N)=O)NC(=O)[C@@H](NC(=O)[C@H](Cc1c[nH]cn1)NC(=O)[C@H](CCC(N)=O)NC(=O)[C@H](CC(=O)O)NC(=O)[C@H](CCC(=O)O)NC(=O)[C@H](CC(=O)O)NC(=O)CCC(=O)NCCCOCCOCCOCCCNC(=O)CCCC[C@@H]1SC[C@@H]2NC(=O)N[C@@H]21)[C@@H](C)O)C(=O)N[C@H](C(=O)N[C@@H](CCCCNC(C)=O)C(=O)N[C@H](C(=O)O)C(C)C)[C@@H](C)O : BI is -0.021
